- Tested on: Neuraminidase from Clostridium perfringens (bacterial neuraminidase)
- Assay type: binding
- conditionParameters: fluorescence quenching, pH 5.0
Param threshold (100000 L/mol) applies to KSV (Stern–Volmer constant); output criterion met when value >= threshold, criterion not met when value < threshold.

Ask: Does the compound COc1ccc(-c2oc3c(CC=C(C)C)c(O)cc(O)c3c(=O)c2O[C@@H]2O[C@@H](C)[C@H](O)[C@@H](O)[C@H]2O[C@@H]2OC[C@@H](O)[C@H](O)[C@H]2O)cc1 [Compound 6, sagittatoside B] have recorded KSV (Stern–Volmer constant) that is 100000 L/mol or more?
Result: criterion not met

Ask: Record CC(C)=CCc1c(O)cc(O)c2c1OC(c1ccc(O)cc1)C(O)C2=O (stereo not drawn) [Compound 2] ; criterion: KSV (Stern–Volmer constant) no lower than 100000 L/mol. Met?
Result: criterion met

Ask: # check: KSV (Stern–Volmer constant) of O=C1c2c(O)cc(O)cc2O[C@H](c2ccc(O)cc2)[C@H]1O [Dihydrokaempferol, dihydrokaempferol, reference compound] is greater than or equal to 100000 L/mol
Result: criterion not met

Ask: Reported KSV (Stern–Volmer constant) at or above 100000 L/mol? CC(C)=CCc1cc(-c2cc(=O)c3c(O)cc(O)c(CC=C(C)C)c3o2)ccc1O [Compound 3, 5,7,4′-trihydroxy-8,3′-diprenyl flavone]
Result: criterion met

Ask: Does the reported KSV (Stern–Volmer constant) for COc1ccc(-c2oc3c(c(O)cc4oc(C(C)(C)O)cc43)c(=O)c2O[C@@H]2O[C@@H](C)[C@H](O)[C@@H](O)[C@H]2O)cc1 [Compound 8] fall at or above the 100000 L/mol mark?
Result: criterion met

Ask: Quick check, KSV (Stern–Volmer constant) >= 100000 L/mol? COc1ccc(-c2oc3c(c(O)cc4oc(C(C)(C)OC)cc43)c(=O)c2OC2OC(C)C(O)C(O)C2O)cc1 (stereo not drawn) [Compound 7]
Result: criterion met

Just for reference, paper PMC6359343 is where these values come from.
